Measured self-cleavage kobs at 40 uM GlcN6P, listed per entry for reference.
B1: glmS ribozyme (parent)
chain: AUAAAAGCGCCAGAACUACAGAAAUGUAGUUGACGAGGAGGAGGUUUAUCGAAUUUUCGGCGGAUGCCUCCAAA

variants of: B1; assay: self-cleavage kobs at 40 uM GlcN6P; higher = faster cleavage; RNA array; conditions: with glucosamine-6-phosphate
This sample holds only a part of the variants without activity.
assayEndpoint: self-cleavage kobs at 40 uM GlcN6P

> print(dat)
                         mutantid                       assayendpoint      obsvalue
 1                  G7U G32A G43A  self-cleavage kobs at 40 uM GlcN6P   < 1e-05 s⁻¹
 2                       A6U C50G  self-cleavage kobs at 40 uM GlcN6P  4.82e-05 s⁻¹
 3            U30C G32C G44U C50U  self-cleavage kobs at 40 uM GlcN6P   < 1e-05 s⁻¹
 4                      A42U C71G  self-cleavage kobs at 40 uM GlcN6P   < 1e-05 s⁻¹
 5                      A33G C58A  self-cleavage kobs at 40 uM GlcN6P   < 1e-05 s⁻¹
 6                      U46A C68A  self-cleavage kobs at 40 uM GlcN6P   < 1e-05 s⁻¹
 7                      U45A G60A  self-cleavage kobs at 40 uM GlcN6P   < 1e-05 s⁻¹
 8                      U47G U54A  self-cleavage kobs at 40 uM GlcN6P  0.000306 s⁻¹
 9                       A6U G43A  self-cleavage kobs at 40 uM GlcN6P   < 1e-05 s⁻¹
10                 A14G C50A G51A  self-cleavage kobs at 40 uM GlcN6P   < 1e-05 s⁻¹
11                      U47A A53U  self-cleavage kobs at 40 uM GlcN6P  0.000547 s⁻¹
12  C11G A39G U46G C61U U65C C68A  self-cleavage kobs at 40 uM GlcN6P   < 1e-05 s⁻¹
13                 G29C U54G G60A  self-cleavage kobs at 40 uM GlcN6P   < 1e-05 s⁻¹
14                 G35C G59U C61U  self-cleavage kobs at 40 uM GlcN6P   < 1e-05 s⁻¹
15                       G7C U49G  self-cleavage kobs at 40 uM GlcN6P   < 1e-05 s⁻¹
16                       G7C A14U  self-cleavage kobs at 40 uM GlcN6P   < 1e-05 s⁻¹
17                            A5U  self-cleavage kobs at 40 uM GlcN6P  0.000961 s⁻¹
18                      A48U G59A  self-cleavage kobs at 40 uM GlcN6P   < 1e-05 s⁻¹
19                      A14C G29U  self-cleavage kobs at 40 uM GlcN6P  4.05e-05 s⁻¹
20            G13A C34A A36U C68G  self-cleavage kobs at 40 uM GlcN6P  8.42e-05 s⁻¹
21                      A52U G62A  self-cleavage kobs at 40 uM GlcN6P   < 1e-05 s⁻¹
22                       G7A A36C  self-cleavage kobs at 40 uM GlcN6P   < 1e-05 s⁻¹
23        A6G A33U C58G C67U C71A  self-cleavage kobs at 40 uM GlcN6P  5.47e-05 s⁻¹
24                      U54C C67A  self-cleavage kobs at 40 uM GlcN6P  0.000198 s⁻¹
25                      A39C U46C  self-cleavage kobs at 40 uM GlcN6P  3.41e-05 s⁻¹
26             C8A G40U C61U U69G  self-cleavage kobs at 40 uM GlcN6P   < 1e-05 s⁻¹
27       A39G U45C U57C C70U C71U  self-cleavage kobs at 40 uM GlcN6P   < 1e-05 s⁻¹
28                 A33G G44U C67U  self-cleavage kobs at 40 uM GlcN6P   < 1e-05 s⁻¹
29                       G9A C67A  self-cleavage kobs at 40 uM GlcN6P   < 1e-05 s⁻¹
30                      U47A G51C  self-cleavage kobs at 40 uM GlcN6P   < 1e-05 s⁻¹
31                  G9A A15U G63U  self-cleavage kobs at 40 uM GlcN6P   < 1e-05 s⁻¹
32                      A15G A52C  self-cleavage kobs at 40 uM GlcN6P   < 1e-05 s⁻¹
33                      G35U G40U  self-cleavage kobs at 40 uM GlcN6P   < 1e-05 s⁻¹
34        G9C U47C A53G G62A C68G  self-cleavage kobs at 40 uM GlcN6P   < 1e-05 s⁻¹
35                      A39G C67G  self-cleavage kobs at 40 uM GlcN6P  0.000189 s⁻¹
36                      G37C G66A  self-cleavage kobs at 40 uM GlcN6P   < 1e-05 s⁻¹
37                      A12C G40A  self-cleavage kobs at 40 uM GlcN6P  0.000112 s⁻¹
38            A12U G32C G41U C61A  self-cleavage kobs at 40 uM GlcN6P   < 1e-05 s⁻¹
39                      G44C C70U  self-cleavage kobs at 40 uM GlcN6P   < 1e-05 s⁻¹
40                      C34G U54G  self-cleavage kobs at 40 uM GlcN6P   < 1e-05 s⁻¹
41             C8U A12C A15G C67U  self-cleavage kobs at 40 uM GlcN6P   < 1e-05 s⁻¹
42            A33G A36G A39C U45A  self-cleavage kobs at 40 uM GlcN6P   < 1e-05 s⁻¹
43                           C70A  self-cleavage kobs at 40 uM GlcN6P  0.000267 s⁻¹
44                           U65G  self-cleavage kobs at 40 uM GlcN6P  5.85e-05 s⁻¹
45                      G40A U45G  self-cleavage kobs at 40 uM GlcN6P  5.96e-05 s⁻¹
46                      G40A C71G  self-cleavage kobs at 40 uM GlcN6P  0.000326 s⁻¹
